System: Staphylococcus aureus (Isolate ID ATCC 29213)
Assay: Bacterial assay: MIC by broth microdilution or agar dilution (CLSI), S. aureus ATCC 29213
Assay type: cell-based
Settings: Staphylococcus aureus, ATCC29213, read-out: S. aureus MIC (μg/mL) Activity Range, S. aureus (ATCC29213)
Experimental: Compounds are tested for antimicrobial activity by susceptibility testing in liquid or on solid media. […] Compound MICs were determined to be in the following activity ranges “A” activity≦0.25 μg/mL; “B” activity>0.25 μg/mL-1.0 μg/mL; “C” activity>1.0 μg/mL-16 μg/mL; “D” activity>16 μg/mL and ND=not determined. […]
Kindly supply the reported MIC values for the records listed here.

Molecule: NC(=O)c1c(F)ccc(OC(CNC(=O)OCc2ccccc2)c2nc(-c3ccc(C(F)(F)F)cc3)co2)c1F (stereo not shown)
Assay Readout: MIC
Reported Measurement: 1 to 16 µg/mL
--
Molecule: Cc1nc(-c2nc(C(CO)Oc3ccc(F)c(C(N)=O)c3F)oc2Br)sc1C (stereo not shown)
Assay Readout: MIC
Reported Measurement: > 16 µg/mL
--
Molecule: C=CCC(Oc1ccc(F)c(C(N)=O)c1F)c1nc(-c2ccc(Cl)cc2)c(Br)o1 (stereo not shown)
Assay Readout: MIC
Reported Measurement: 1 to 16 µg/mL

Request - read-out MIC | tested on Staphylococcus aureus (Isolate ID ATCC 29213) | molecule CC(Oc1ccc(F)c(C(N)=O)c1F)c1nc(-c2ccc(C(F)(F)F)cc2)c(Br)o1 (stereo not shown)
< 0.25 µg/mL

====

tested on: Staphylococcus aureus (Isolate ID ATCC 29213); experiment: Bacterial assay: MIC by broth microdilution or agar dilution (CLSI), S. aureus ATCC 29213; type: cell-based; conditions: Staphylococcus aureus, ATCC29213, read-out: S. aureus MIC (μg/mL) Activity Range, S. aureus (ATCC29213)
Answer each item with its documented MIC.

Check out these entries, answers already filled in.
Compound: CSc1oc(C(CO)Oc2ccc(F)c(C(N)=O)c2F)nc1-c1ccc(C(F)(F)F)cc1 (centres unmarked) [Compound 271]
Assay Readout: MIC
Reported Measurement: 0.25 to 1 µg/mL
--
Compound: Cc1noc(CCNC(=O)OCC(Oc2ccc(F)c(C(N)=O)c2F)c2nc(-c3ccc(C(F)(F)F)cc3)c(Br)o2)n1 (centres unmarked) [Compound 171]
Assay Readout: MIC
Reported Measurement: 0.25 to 1 µg/mL
--
Compound: CCCc1oc(C(C)Oc2ccc(F)c(C(N)=O)c2F)nc1-c1ccc(Cl)cc1 (centres unmarked) [Compound 19]
Assay Readout: MIC
Reported Measurement: 0.25 to 1 µg/mL
--
Compound: CC(Oc1ccc(F)c(C(N)=O)c1F)c1nc(Br)c(Cl)s1 (centres unmarked) [Compound 24]
Assay Readout: MIC
Reported Measurement: 1 to 16 µg/mL
--
Compound: CNC(=O)C(Oc1ccc(F)c(C(N)=O)c1F)c1nc(-c2ccc(Cl)cc2)c(Cl)o1 (centres unmarked) [Compound 49]
Assay Readout: MIC
Reported Measurement: 1 to 16 µg/mL
--
Compound: COC(=O)CCNC(=O)OCC(Oc1ccc(F)c(C(N)=O)c1F)c1nc(-c2ccc(C(F)(F)F)cc2)c(Br)o1 (centres unmarked) [Compound 141]
Assay Readout: MIC
Reported Measurement: < 0.25 µg/mL
--
Compound: COc1ncc(-c2nc(C(C)Oc3ccc(F)c(C(N)=O)c3F)sc2Cl)s1 (centres unmarked) [Compound 35]
Assay Readout: MIC
Reported Measurement: < 0.25 µg/mL

We next turn to a different compound, shown below.
Return reported MIC; argument: NC(=O)c1c(F)ccc(OC(COC2CCCCO2)c2nc(-c3ccc(C(F)(F)F)cc3)c(Br)o2)c1F (centres unmarked) [Compound 105]
0.25 to 1 µg/mL
